All values here come from paper PMC5589751.

target: TRPM8 (Rattus norvegicus); construct: expressed in transfected cells; assay: Ca2+ microfluorography (Fluo-4 NW), menthol-induced Ca2+ signal in HEK-CR1-TRPM8 cells; type: cell-based; conditions: agonist 100 µM menthol; HEK-CR1-TRPM8 cells
Sequence (Q8R455 whole entry): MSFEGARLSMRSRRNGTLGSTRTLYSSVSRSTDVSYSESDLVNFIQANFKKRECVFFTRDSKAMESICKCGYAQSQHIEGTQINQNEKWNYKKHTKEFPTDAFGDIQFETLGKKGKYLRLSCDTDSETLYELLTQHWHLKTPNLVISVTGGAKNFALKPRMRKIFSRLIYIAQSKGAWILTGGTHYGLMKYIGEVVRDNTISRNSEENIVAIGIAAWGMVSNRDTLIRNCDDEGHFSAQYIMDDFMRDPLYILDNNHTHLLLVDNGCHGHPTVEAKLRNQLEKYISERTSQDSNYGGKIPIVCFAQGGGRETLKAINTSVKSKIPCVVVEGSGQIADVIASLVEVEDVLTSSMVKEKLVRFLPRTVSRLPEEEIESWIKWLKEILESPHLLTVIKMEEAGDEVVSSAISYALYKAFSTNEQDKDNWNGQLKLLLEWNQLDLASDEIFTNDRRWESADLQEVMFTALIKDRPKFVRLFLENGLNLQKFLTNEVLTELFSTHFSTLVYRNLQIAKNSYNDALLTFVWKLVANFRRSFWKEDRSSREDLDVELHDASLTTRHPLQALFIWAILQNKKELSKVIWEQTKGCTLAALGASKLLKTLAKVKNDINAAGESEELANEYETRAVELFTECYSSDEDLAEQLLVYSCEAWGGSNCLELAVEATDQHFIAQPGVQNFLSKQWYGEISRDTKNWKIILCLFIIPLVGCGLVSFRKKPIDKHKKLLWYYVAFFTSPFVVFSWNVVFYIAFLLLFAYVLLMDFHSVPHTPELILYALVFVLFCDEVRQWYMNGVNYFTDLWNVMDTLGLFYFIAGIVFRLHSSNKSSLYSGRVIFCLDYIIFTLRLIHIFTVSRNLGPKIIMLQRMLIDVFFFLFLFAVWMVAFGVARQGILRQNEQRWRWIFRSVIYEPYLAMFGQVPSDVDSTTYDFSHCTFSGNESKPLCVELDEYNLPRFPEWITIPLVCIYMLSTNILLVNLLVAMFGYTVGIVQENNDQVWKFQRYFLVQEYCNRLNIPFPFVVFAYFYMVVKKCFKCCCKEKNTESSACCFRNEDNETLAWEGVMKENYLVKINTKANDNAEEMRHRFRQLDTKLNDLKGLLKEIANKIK
pIC50: −log10 of the molar value.
Observable: pIC50

IN: Entry under review: COC(=O)C1(C)CC(=O)N1CC[C@H](NC(=O)OC(C)(C)C)C(=O)OCc1ccccc1 (stereo partly drawn) . Reported pIC50?
OUT: 4.43

IN: Entry under review: CC(C)(C)OC(=O)NC(CCCN1C(=O)CC1(Cc1ccccc1)C(=O)NCc1ccccc1)C(=O)NCc1ccccc1 (stereo not drawn) . Reported pIC50?
OUT: 4.94

IN: Entry under review: CC(C)(C)OC(=O)N[C@@H](CCN1C(=O)C[C@]1(Cc1ccccc1)C(=O)NCc1ccccc1)C(=O)NCc1ccccc1 [Compound 62a] . Reported pIC50?
OUT: 5.15

IN: Entry under review: CC(C)(C)OC(=O)NC(CCN1C(=O)CC1(Cc1ccccc1)C(=O)Nc1cccnc1)C(=O)Nc1cccnc1 (stereo not drawn) . Reported pIC50?
OUT: 5.24

P = CC(C)(C)OC(=O)NC(CCCN1C(=O)CC1(Cc1ccccc1)C(=O)OCc1ccccc1)C(=O)OCc1ccccc1 (stereo not drawn)
Q = CC(C)(C)OC(=O)N[C@@H](CCN1C(=O)CC1(Cc1ccccc1)C(=O)OCc1ccccc1)C(=O)OCc1ccccc1 (stereo partly drawn)
R = CC(C)(C)OC(=O)NC(CCN1C(=O)CC1(Cc1ccccc1)C(=O)O)C(=O)O (stereo not drawn)
S = COC(=O)C1(Cc2ccccc2)CC(=O)N1CCC(NC(=O)OC(C)(C)C)C(=O)OCc1ccccc1 (stereo not drawn)
T = COC(=O)C(C)NC(=O)C1(Cc2ccccc2)CC(=O)N1CCCC(C(=O)OC)N(C)C(=O)OCc1ccccc1 (stereo not drawn)
IN: With regard to pIC50, arrange the entries in ascending order, please. List each label, following the requested order.
OUT: R, T, S, P, Q
(R: 4.13, T: 4.49, S: 5.17, P: 5.77, Q: 6.38)

A = COC(=O)C1(C)CC(=O)N1CCC(NC(=O)OCc1ccccc1)C(=O)OC(C)(C)C (stereo not drawn)
B = COC(=O)[C@H](C)NC(=O)C1(Cc2ccccc2)CC(=O)N1CCC[C@H](NC(=O)OCc1ccccc1)C(=O)OC (stereo partly drawn)
IN: Input pair: A , B . Output: entry with lower pIC50. Your answer should be the label of the entry you select.
OUT: A

I = COC(=O)[C@H](CCCN1C(=O)CC1(Cc1ccccc1)C(=O)N[C@H](C)C(=O)OC)NC(=O)OCc1ccccc1 (stereo partly drawn)
II = CC1C(=O)N(CC[C@H](NC(=O)OC(C)(C)C)C(=O)OCc2ccccc2)C1(Cc1ccccc1)C(=O)OCc1ccccc1 (stereo partly drawn)
III = Cc1cccc(COc2ccccc2C(=O)N(CCCN)Cc2cccs2)c1 [Compound 68, reference compound]
IV = CNC(CCCN1C(=O)CC1(Cc1ccccc1)C(=O)NC(C)C(=O)OC)C(=O)OC (stereo not drawn)
IN: With regard to pIC50, arrange the entries in ascending order, please. List each label, following the requested order.
OUT: I, IV, III, II
(I: 4.09, IV: 4.57, III: 5.15, II: 6.10)

P = COC(=O)[C@H](C)NC(=O)[C@H](CCN1C(=O)C[C@@]1(Cc1ccccc1)C(=O)N[C@@H](C)C(=O)OC)NC(=O)OC(C)(C)C [Compound 57b]
Q = COC(=O)C1(Cc2ccccc2)CC(=O)N1CCC(NC(=O)OCc1ccccc1)C(=O)OC(C)(C)C (stereo not drawn)
IN: Between P and Q , which one shows the larger pIC50 value? Your answer should be the label of the entry you select.
OUT: Q
